# Test system: HCT116 cells
# TEST_METHOD_NOTES: viability-based synergy experiment, C1368 and cetuximab, HCT116 cells
# Format: cell-based, human
# COND: cetuximab with C1368, 1:109 ratio, read-out: IC50 value in combination
RECORDED_ENDPOINT: pIC50
Give bare numbers, as −log10 of the molar value.

Measured pIC50 of O=C(Nc1cccc(Nc2nccc(Nc3cccc(C(F)(F)F)c3)n2)c1)C1CC1 : 6.00
